# System: Vero
# TEST_SUMMARY: Cytotoxicity against Chlorocebus aethiops (African green monkey) Vero cells after 72 hr by XTT assay
# Assay type: cell-based
# EXPERIMENTAL_CONTEXT: chlorocebus sabaeus, vero, 72 h
PROPERTY_LABEL: CC25

> print(dat)
                                   compound  tested.on  property.label        result
1  CCOC(=O)C1=C(C)NC(=O)NC1c1ccc(F)cc1 (stereo not given)       Vero            CC25     Non-toxic
2  CC1=C(C(=O)Nc2ccccc2Cl)C(c2ccccc2Cl)NC(=O)N1 (stereo not given)       Vero            CC25     Non-toxic
3  CCOC(=O)C1=C(C)NC(=O)NC1c1cnc(CS)n1NCc1ccccc1 (stereo not given)       Vero            CC25     Non-toxic
4  CC1=C(C(=O)Nc2cccnc2)C(c2cccs2)NC(=O)N1 (stereo not given)       Vero            CC25  > 100 µmol/L
5  CC1=C(C(=O)Nc2ccccc2Cl)C(c2ccc(Cl)cc2)NC(=O)N1 (stereo not given)       Vero            CC25     Non-toxic

* * *

# Test system: Vero
# TEST_SUMMARY: Cytotoxicity against Chlorocebus aethiops (African green monkey) Vero cells after 72 hr by XTT assay
# Assay type: cell-based
# EXPERIMENTAL_CONTEXT: chlorocebus sabaeus, vero, 72 h
PROPERTY_LABEL: CC25

> print(dat)
                                   molecule     result
1  COC(=O)C1=C(C)NC(=O)NC1c1ccc(F)cc1 (stereo unspecified)  Non-toxic
2  COC(=O)C1=C(C)N(C)C(=O)NC1c1ccc(F)cc1 (stereo unspecified)  Non-toxic
3  CC1=C(C(=O)Nc2ccccn2)C(c2cccs2)NC(=O)N1 (stereo unspecified)   > 100 µM
4  CC1=C(C(=O)Nc2ccccc2Cl)C(c2ccc([N+](=O)[O-])cc2)NC(=O)N1 (stereo unspecified)  Non-toxic
5  CC1=C(C(=O)Oc2ccccc2)C(c2ccccc2)NC(=S)N1 (stereo unspecified)  Non-toxic
6  CC1=C(C(=O)Nc2ccccc2Cl)C(c2cccc([N+](=O)[O-])c2)NC(=O)N1 (stereo unspecified)  Non-toxic
